test system: SARS-CoV-2; test: Inhibitory activity of cytopathic effect (CPE) in HEK293T/ACE2-TMPRSS2 cells; type: cell-based; details: Severe acute respiratory syndrome coronavirus 2, HEK-293T, 72 h; HEK293T/ACE2-TMPRSS2 cells, cultured 3 days, CellTiter-Glo 2.0 luminescence; read-out: EC50 (50% SARS-CoV-2 infected cell death inhibitory concentration)
Parameter: EC50. Scope: all listed entries.

Past entries and their recorded results:
[2H]C([2H])([2H])O[C@@H]1CCN(c2cc3c(c(OC)n2)c(=O)n(-c2cncc(Cl)c2)c(=O)n3-c2ccc(F)c(F)c2)C1 : < 100 nM
CNC(=O)c1ccc(Cl)c(-c2cc3c(c4c2CCO4)c(=O)n(Cc2ncn(C)n2)c(=O)n3Cc2cc(F)c(F)c(Cl)c2)n1 : < 100 nM
COc1nc2c(=O)n(Cc3ncn(C)n3)c(=O)n(Cc3cc(C#N)ccc3C)c2cc1-c1cc(C#N)ccc1Cl : 100 to 1000 nM
COc1nc(N2CC[C@@H](O)C2)cc2c1c(=O)n(-c1cnc3cc(F)c(Cl)cn13)c(=O)n2-c1ccc(F)c(Cl)c1 : < 100 nM
Cn1cnc(Cn2c(=O)c3c4c(c(-c5cc(C#N)ccc5Cl)cc3n(Cc3cc(F)c(F)c(F)c3)c2=O)[C@H](O)CO4)n1 : 100 to 1000 nM
Cn1cnc(Cn2c(=O)c3c4nccnc4c(-c4cc(C#N)ccc4Cl)cc3n(Cc3cc(F)c(F)c(Cl)c3)c2=O)n1 : < 100 nM

Fill in reported EC50 for this entry: COc1ccc(Cl)c(-c2cc(OC)c3c(=O)n(Cc4ncn(C)n4)c(=O)n(Cc4cc(F)c(F)c(F)c4)c3c2)n1
100 to 1000 nM

Fill in reported EC50 for this entry: COc1nc2c(=O)n(Cc3ncn(C)n3)c(=O)n(Cc3cc(Cl)c(F)cc3C)c2cc1-c1nc(C(C)(C)O)ccc1Cl
< 100 nM

Fill in reported EC50 for this entry: Cn1cnc(Cn2c(=O)c3c4c(c(N5CCC(F)(F)C5)cc3n(Cc3cc(F)c(F)c(Cl)c3)c2=O)CCO4)n1
< 100 nM

* * *

target: SARS-CoV-2 3CL protease (Severe acute respiratory syndrome coronavirus 2); experiment: Inhibitory activity test against SARS-CoV-2 3CL proteases; assay type: biochemical; details: read-out: IC50 (50% SARS-CoV-2 3CL protease inhibitory concentration)
pIC50: −log10 of the molar value.
Parameter: pIC50. Scope: all listed entries.

Fill in reported pIC50 for this entry: COc1nc(N2CC[C@@H](C(F)F)C2)cc2c1c(=O)n(-c1cnc3cc(F)ccn13)c(=O)n2-c1ccc(F)c(Cl)c1
> 7.00

Fill in reported pIC50 for this entry: CC1COc2c1c(N1CC[C@@H](O)C1)cc1c2c(=O)n(Cc2ncn(C)n2)c(=O)n1Cc1cc(F)c(F)c(F)c1 (stereo partly shown)
8.00

Fill in reported pIC50 for this entry: COc1cc(-c2cc(C3(O)CC3)ccc2Cl)cc2c1c(=O)n(Cc1ncn(C)n1)c(=O)n2Cc1cc(F)c(F)c(F)c1
> 7.00

Fill in reported pIC50 for this entry: Cn1cnc(Cn2c(=O)c3c4nccnc4c(N4CC(F)C4)cc3n(Cc3cc(F)c(F)c(Cl)c3)c2=O)n1
> 7.00

// provenance: patent US20240400560A1
